Biological target: Y641N EZH2 (Homo sapiens, UniProt Q15910, Y641N)
Sequence (Q15910 whole entry Y641N): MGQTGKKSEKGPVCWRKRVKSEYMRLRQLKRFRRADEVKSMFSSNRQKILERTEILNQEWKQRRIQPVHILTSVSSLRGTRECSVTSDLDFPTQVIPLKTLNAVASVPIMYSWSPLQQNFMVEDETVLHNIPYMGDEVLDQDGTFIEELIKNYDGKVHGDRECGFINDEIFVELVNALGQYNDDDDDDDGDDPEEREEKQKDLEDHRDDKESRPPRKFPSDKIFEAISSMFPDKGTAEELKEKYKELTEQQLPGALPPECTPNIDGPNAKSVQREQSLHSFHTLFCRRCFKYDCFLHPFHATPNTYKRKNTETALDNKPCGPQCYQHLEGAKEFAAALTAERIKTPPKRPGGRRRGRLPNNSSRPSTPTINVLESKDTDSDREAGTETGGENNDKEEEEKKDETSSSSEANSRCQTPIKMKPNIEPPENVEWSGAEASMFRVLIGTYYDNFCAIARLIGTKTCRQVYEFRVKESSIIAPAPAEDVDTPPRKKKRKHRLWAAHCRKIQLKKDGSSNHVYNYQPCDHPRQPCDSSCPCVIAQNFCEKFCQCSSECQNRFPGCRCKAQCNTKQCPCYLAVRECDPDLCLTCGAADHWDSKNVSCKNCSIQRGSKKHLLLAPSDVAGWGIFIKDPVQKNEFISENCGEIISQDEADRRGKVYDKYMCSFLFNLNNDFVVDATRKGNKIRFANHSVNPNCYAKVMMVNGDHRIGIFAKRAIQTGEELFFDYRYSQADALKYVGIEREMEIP
Sequence (O75530 whole entry partner): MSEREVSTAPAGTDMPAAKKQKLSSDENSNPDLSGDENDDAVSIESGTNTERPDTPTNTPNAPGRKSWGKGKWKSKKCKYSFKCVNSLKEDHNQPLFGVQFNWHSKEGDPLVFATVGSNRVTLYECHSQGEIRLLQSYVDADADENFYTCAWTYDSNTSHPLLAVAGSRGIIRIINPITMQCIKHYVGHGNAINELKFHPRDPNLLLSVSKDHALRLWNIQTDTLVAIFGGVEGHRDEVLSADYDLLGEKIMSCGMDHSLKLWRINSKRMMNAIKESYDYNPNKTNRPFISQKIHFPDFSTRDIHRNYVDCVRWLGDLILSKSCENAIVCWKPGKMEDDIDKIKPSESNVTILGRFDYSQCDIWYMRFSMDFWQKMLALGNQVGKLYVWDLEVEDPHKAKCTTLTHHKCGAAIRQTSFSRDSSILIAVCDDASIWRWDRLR
Sequence (Q15022 whole entry partner): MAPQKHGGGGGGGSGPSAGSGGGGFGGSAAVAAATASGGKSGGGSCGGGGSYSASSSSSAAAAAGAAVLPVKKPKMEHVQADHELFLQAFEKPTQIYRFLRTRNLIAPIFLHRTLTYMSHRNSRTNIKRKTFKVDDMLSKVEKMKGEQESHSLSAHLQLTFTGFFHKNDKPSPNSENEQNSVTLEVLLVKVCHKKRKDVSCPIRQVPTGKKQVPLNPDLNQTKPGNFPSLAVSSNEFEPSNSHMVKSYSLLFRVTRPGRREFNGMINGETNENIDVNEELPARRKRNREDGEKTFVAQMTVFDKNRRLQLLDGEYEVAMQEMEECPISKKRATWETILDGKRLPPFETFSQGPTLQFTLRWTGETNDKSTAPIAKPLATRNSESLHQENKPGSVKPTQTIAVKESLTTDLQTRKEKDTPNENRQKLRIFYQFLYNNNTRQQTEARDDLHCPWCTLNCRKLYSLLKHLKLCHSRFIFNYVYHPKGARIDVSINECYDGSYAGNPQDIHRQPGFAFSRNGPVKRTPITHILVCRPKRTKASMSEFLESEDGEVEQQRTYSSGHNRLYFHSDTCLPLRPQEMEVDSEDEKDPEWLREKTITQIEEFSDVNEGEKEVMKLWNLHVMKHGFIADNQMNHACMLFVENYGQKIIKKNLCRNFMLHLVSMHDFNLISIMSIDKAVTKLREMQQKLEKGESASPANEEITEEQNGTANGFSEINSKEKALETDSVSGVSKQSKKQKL
Assay: Y641N EZH2 assay: as EZH2 assay, with reconstituted H3K27Me2 oligonucleosomes as substrate
Type: biochemical
Conditions: Y641N EZH2 IC50, Y641N mutant EZH2, H3K27Me2 oligonucleosome substrate
pIC50: −log10 of the molar value.
readout.name: pIC50

compound="COc1cc(C(C)n2c(C)c(C(=O)NCc3c(C)cc(C)[nH]c3=O)c3cccnc32)ccn1 (racemic) [Compound 207]" recorded_result="6.00 to 7.00"
compound="COc1cc(C)[nH]c(=O)c1CNC(=O)c1c(C)n(C(C)C(C)OC)c2ccccc12 (single isomer, unassigned) [Compound 308]" recorded_result="6.00 to 7.00"
compound="Cc1cc(C)c(CNC(=O)c2c(C)n(C(C)CN3CCOCC3)c3ncccc23)c(=O)[nH]1 (racemic) [Compound 237]" recorded_result="5.00 to 6.00"
compound="COc1cc(C)[nH]c(=O)c1CNC(=O)c1c(C)n(C(C)C(C)OC)c2cc(S(C)(=O)=O)ccc12 (stereo not drawn) [Compound 323]" recorded_result="6.00 to 7.00"
compound="COc1cc(C)[nH]c(=O)c1CNC(=O)c1c(C)n(C(C)C2CCN(C(=O)OC(C)(C)C)CC2)c2ccccc12 (single isomer, unassigned) [Compound 327]" recorded_result="> 7.00"
compound="Cc1cc(C)c(CNC(=O)c2c(C)n([C@H](C)c3ccccc3)c3nc(N4CCOCC4)ncc23)c(O)n1 [Compound 143]" recorded_result="5.00 to 6.00"
compound="COc1cc(C)[nH]c(=O)c1CNC(=O)c1c(C)n(C(C)C2CCOCC2)c2cc(Cl)ccc12 (single isomer, unassigned) [Compound 314]" recorded_result="> 7.00"
compound="Cc1cc(C)c(CNC(=O)c2c(C)n([C@H](C)c3ccccc3)c3nc(Cl)ncc23)c(O)n1 [Compound 167]" recorded_result="6.00 to 7.00"
compound="Cc1cc(C)c(CNC(=O)c2c(C)n(C3CCOCC3)c3ncccc23)c(=O)[nH]1 [Compound 244]" recorded_result="5.00 to 6.00"
compound="COc1cc(C)[nH]c(=O)c1CNC(=O)c1c(C)n(C(C)C(C)OC)c2ncccc12 (single isomer, unassigned) [Compound 302]" recorded_result="5.00 to 6.00"
compound="COc1cc(C)[nH]c(=O)c1CNC(=O)c1c(C)n(C(C)c2ccccc2)c2ccccc12 (single isomer, unassigned) [Compound 114]" recorded_result="> 7.00"
compound="COc1cc(C)[nH]c(=O)c1CNC(=O)c1c(C)n(C(C)C(C)OC)c2ccccc12 (racemic) [Compound 294]" recorded_result="> 7.00"
compound="COc1cc(C)[nH]c(=O)c1CNC(=O)c1c(C)n(C(C)C(OC)C(F)(F)F)c2ncccc12 (stereo not drawn) [Compound 312]" recorded_result="6.00 to 7.00"
compound="COc1cc(C)[nH]c(=O)c1CNC(=O)c1c(C)n(C(C)C2CCN(C(=O)OC(C)C)CC2)c2ccccc12 (single isomer, unassigned) [Compound 346]" recorded_result="> 7.00"
compound="COc1cc(C)[nH]c(=O)c1CNC(=O)c1c(C)n(C(C)[C@H]2CNCCO2)c2ncncc12 (stereo partly drawn) [Compound 351]" recorded_result="6.00 to 7.00"
compound="CCOC(C)C(C)n1c(C)c(C(=O)NCc2c(OC)cc(C)[nH]c2=O)c2ccccc21 (racemic) [Compound 290]" recorded_result="6.00 to 7.00"
compound="COCC(C)n1c(C)c(C(=O)NCc2c(OC)cc(C)[nH]c2=O)c2ccccc21 (single isomer, unassigned) [Compound 224]" recorded_result="> 7.00"
compound="COc1cc(C)[nH]c(=O)c1CNC(=O)c1c(C)n(C(C)c2ccccc2)c2cnccc12 (single isomer, unassigned) [Compound 258]" recorded_result="> 7.00"
compound="COCC(C)n1c(C)c(C(=O)NCc2c(OC)cc(C)[nH]c2=O)c2cccnc21 (racemic) [Compound 204]" recorded_result="6.00 to 7.00"
compound="COc1cc(C)[nH]c(=O)c1CNC(=O)c1c(C)n(C(C)C(C)S(C)(=O)=O)c2ccccc12 (stereo not drawn) [Compound 350]" recorded_result="> 7.00"
compound="Cc1cc(C)c(CNC(=O)c2c(C)n(C(C)c3cccc(Cl)c3)c3ccccc23)c(=O)[nH]1 (racemic) [Compound 181]" recorded_result="> 7.00"
compound="COc1cc(C)[nH]c(=O)c1CNC(=O)c1c(C)n(C(C)CS(C)(=O)=O)c2ccccc12 (single isomer, unassigned) [Compound 279]" recorded_result="6.00 to 7.00"
compound="COCC(C)n1c(C)c(C(=O)NCc2c(OC)cc(C)[nH]c2=O)c2ccc(F)cc21 (racemic) [Compound 231]" recorded_result="6.00 to 7.00"
compound="Cc1cc(C)c(CNC(=O)c2c(C)n(C(C)C(C)(C)O)c3ncccc23)c(=O)[nH]1 (stereo not drawn) [Compound 271]" recorded_result="5.00 to 6.00"
compound="COc1cc(C)[nH]c(=O)c1CNC(=O)c1c(C)n(C(C)C2CCOCC2)c2ncccc12 (single isomer, unassigned) [Compound 288]" recorded_result="> 7.00"
compound="Cc1cc(C)c(CNC(=O)c2c(C)n(C(C)c3ccccc3)c3ncccc23)c(O)n1 (racemic) [Compound 146]" recorded_result="6.00 to 7.00"
compound="COc1cc(C)[nH]c(=O)c1CNC(=O)c1c(C)n(C(C)c2cccc(C#N)c2)c2ncccc12 (racemic) [Compound 239]" recorded_result="> 7.00"
